# ASSAY TARGET: T1, hPD-1 (Sino Biological Inc., Catalog No.: 10377-H03H-B) (human, UniProt Q15116 25-167)
# T1 construct: Bought protein; also called human PD-1; purified hPD-1
# T1 sequence (Q15116 25-167): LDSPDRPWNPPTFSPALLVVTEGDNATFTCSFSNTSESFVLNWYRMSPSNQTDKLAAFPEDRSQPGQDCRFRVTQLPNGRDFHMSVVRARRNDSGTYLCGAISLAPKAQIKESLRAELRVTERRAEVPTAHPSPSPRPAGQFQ
# ASSAY OVERVIEW: ELISA, hPD-1 coated on the plate
METRIC NAME: pEC50
Note on pEC50: it is the negative log10 of concentration, concentration in mol/L.

Observe how each entry below is paired with its result.
INSERT INTO measurements (binder, endpoint_value) VALUES
  ('antibody CL1 (antibody, human IgG4 S228P, kappa, V domains shown, also called anti-hPD-1 antibody CL1; CL1 VH / CL1 VL IgG4) VH: QVQLVQSGVEVKKPGASVKVSCKASGYTFTNYYMYWVRQAPGQGLEWMGGINPSNGGTNFNEKFKNRVTLTTDSSTTTAYMELKSLQFDDTAVYYCAARDYRLDMGFEFWGQGTTVTVSS VL: EIVLTQSPATLSLSPGERATLSCRASKGVSTSGYSYLHWYQQKPGQAPRLLIYLASYLESGVPARFSGSGSGTDFTLTISSLEPEDFAVYYCQHAYDLPLTFGGGTKVEIKR', 9.68),
  ('antibody CL6 (antibody, human IgG4, V domains shown) VH: QVQLVQSGVEVKKPGASVKVSCKASGYTFTNYYMYWVRQAPGQGLEWMGGINPSNGGTNFNEKFKNRVTLTTDSSTTTAYMELKSLQFDDTAVYYCAARDYRFDMGFEFWGQGTTVTVSS VL: EIVLTQSPATLSLSPGERATLSCRASKGVSTSGYSYLHWYQQKPGQAPRLLIYLASYLESGVPARFSGSGSGTDFTLTISSLEPEDFAVYYCQHSYDLPLTFGGGTKVEIK', 8.87);

Now consider the entry below.
Ask | Given antibody CL9 (antibody, human IgG4, V domains shown) VH: QVQLVQSGVEVKKPGASVKVSCKASGYTFTNYYMYWVRQAPGQGLEWMGGINPSNGGTNFNEKFKNRVTLTTDSSTTTAYMELKSLQFDDTAVYYCAARDYKFDMGFEFWGQGTTVTVSS VL: EIVLTQSPATLSLSPGERATLSCRASKGVSTSGYSYLHWYQQKPGQAPRLLIYLASYLESGVPARFSGSGSGTDFTLTISSLEPEDFAVYYCQHSYGLPVTFGGGTKVEIK , state its recorded pEC50.
Reply | 9.23
